All figures here come from paper PMC9978883.

Test system: DU145 vector
Assay: Cell proliferation on DU145 vector control cells
Type: cell-based
Measurement context: Homo sapiens, DU-145, read-out: IC50, DU145 vector
Measurement name: IC50 (µM)
Report only the number, with the unit µM understood.

Enquiry: Consider the compound shown here: O=C(N/N=C/c1ccc([N+](=O)[O-])o1)c1ccc(O)cc1 [NFZ, Nifuroxazide] What is its recorded IC50?
Return: 7.68

* * *

System: STAT3 (Homo sapiens, UniProt P40763)
Sequence (P40763 whole entry): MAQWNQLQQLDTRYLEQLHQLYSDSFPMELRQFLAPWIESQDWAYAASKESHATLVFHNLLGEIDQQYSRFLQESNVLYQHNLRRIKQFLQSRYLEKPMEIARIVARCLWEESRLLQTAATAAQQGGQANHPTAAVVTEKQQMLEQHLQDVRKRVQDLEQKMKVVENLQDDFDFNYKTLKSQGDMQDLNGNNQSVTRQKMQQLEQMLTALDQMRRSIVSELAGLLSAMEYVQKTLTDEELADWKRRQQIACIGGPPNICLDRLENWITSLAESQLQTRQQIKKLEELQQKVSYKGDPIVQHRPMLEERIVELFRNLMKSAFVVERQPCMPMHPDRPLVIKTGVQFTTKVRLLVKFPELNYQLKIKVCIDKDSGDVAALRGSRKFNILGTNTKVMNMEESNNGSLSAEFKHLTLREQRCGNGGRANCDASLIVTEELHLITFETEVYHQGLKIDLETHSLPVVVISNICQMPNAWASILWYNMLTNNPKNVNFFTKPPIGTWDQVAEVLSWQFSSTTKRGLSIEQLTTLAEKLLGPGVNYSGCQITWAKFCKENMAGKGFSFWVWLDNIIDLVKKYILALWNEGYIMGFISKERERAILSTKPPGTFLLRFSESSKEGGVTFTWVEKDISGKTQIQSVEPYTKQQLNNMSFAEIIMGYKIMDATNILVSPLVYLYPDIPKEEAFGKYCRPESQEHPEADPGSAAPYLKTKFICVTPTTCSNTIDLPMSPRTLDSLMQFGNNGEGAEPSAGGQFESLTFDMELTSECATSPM
Measurement name: pKd
To interpret pKd, take it as minus log10 of a concentration measured in moles per litre.

Enquiry: Look up pKd for this compound: O=C(N/N=C/c1ccc([N+](=O)[O-])o1)c1ccc(O)cc1 [NFZ, Nifuroxazide]
Return: 4.64
